system: RXF 393; assay: NCI tumour cell line growth inhibition, 48 h
Calls of active or inactive are those of the source. Cut-off read from the data, not from the text of the source: active = GI50 up to about 1.1 µM and inactive = higher.
Value Type: GI50

[ask] Please look up its GI50: NC(=O)Cc1nc2c(O)ncnc2n1C1OC(CO)C(O)C1O (stereo unspecified)
[reply] > 100 µM (inactive)

[ask] Can you share its GI50? I mean this compound: CCSC(=O)/C=C1\CN(C(=O)OC(C)(C)C)C1C(=O)OC(C)(C)C (stereo unspecified)
[reply] 1.91 µM (inactive)

[ask] Requested read-out: GI50. Entry: CC1C(=O)N(c2ccccc2)NC12CCCc1ccccc12 (stereo unspecified)
[reply] > 100 µM (inactive)

[ask] Return reported GI50; argument: "Cc1cc2c(cc1C)C(=O)c1ncccc1C2=O"
[reply] 33.2 µM (inactive)

[ask] Reported GI50, compound "Clc1cc(Cl)cc(Nc2nc3ccccc3nc2-c2cccs2)c1" : ____
[reply] 17.1 µM (inactive)

[ask] Returns the measured GI50 for the input compound. Input: "Nc1ccc(-c2nc3ccc(F)cc3s2)cc1Cl"
[reply] > 41.5 µM (inactive)

[ask] // GI50 lookup, key: O=C(NC1C/C(=N/O)c2c(Br)sc(Br)c21)C(F)(F)F (stereo unspecified)
[reply] 11.3 µM (inactive)

[ask] What GI50 value was documented for this compound, "O=C(N/N=C/C=C/c1ccccc1)[C@H](O)[C@@H](O)C(=O)N/N=C/C=C/c1ccccc1" ?
[reply] > 100 µM (inactive)

[ask] Please give the measured GI50 for this compound: "CC(=O)Nc1ccc(-c2nc3ccccc3s2)cc1I"
[reply] 14.8 µM (inactive)

[ask] # query: GI50 of entry "O=C(Cn1c(C(=O)/C=C/c2ccco2)nc2ccccc21)c1ccc(Cl)cc1"
[reply] 30.4 µM (inactive)

[ask] If you can, please state the reported GI50 value of "O=C(c1ccc(Cl)cc1)c1ccc(OCC(=O)N2CCN(c3ccccc3)CC2)cc1" .
[reply] > 100 µM (inactive)

[ask] Name the reported GI50 value associated with the compound "COc1ccc(/C=N/c2c(O)ccc3ccccc23)cc1OC"
[reply] 69.3 µM (inactive)

[ask] Endpoint output: GI50 of "CCCCCN(CCCCC)C(=O)[C@@H](CCC(=O)O)NC(=O)c1cc2ccccc2[nH]1" . Value?
[reply] 1.99 µM (inactive)

[ask] Entry "O=c1[nH]c(=O)n(COCCO)c2ccc(Br)cc12" : reported GI50 = ?
[reply] > 100 µM (inactive)

[ask] Value lookup for GI50; key = "Clc1ccc(-c2nnc(-c3nsc4ccccc34)o2)cc1"
[reply] 38.3 µM (inactive)

[ask] Suppose we examine the compound S=C1N=C2C(=N1)n1c3c(c4ccccc41)CCCC23 (stereo unspecified) ; what GI50 value has been reported?
[reply] > 100 µM (inactive)
